- System: GENE-TOX genotoxicity assays, various organisms and cells
- procedure summary: GENE-TOX mutagenicity studies
- stated conditions: Species/Cell Type: Bacillus subtilis (H17 vs M45); Assay Type: Rec-assay, spot test, DNA effects (bacterial DNA repair); Assay Code: REW-; Evaluation Type: Evaluation A (Pre-1980)
Active and inactive are the calls of the source. How the calls were made is not given here.
quantity measured: mutagenic call

Reference set, count: 4
{"columns": ["chemical smiles", "mutagenic call"],
 "data": [
  ["[Cl][Sn][Cl]", "inactive; negative"],
  ["O=C(N[C@H](CO)[C@H](O)c1ccc([N+](=O)[O-])cc1)C(Cl)Cl", "inactive; negative"],
  ["C=C1[C@@H](C)[C@H]2[C@H](Cc3ccccc3)NC(=O)[C@]23OC(=O)/C=C/[C@H](O)CCC[C@@H](C)C/C=C/[C@H]3[C@@H]1O", "inactive; negative"],
  ["CN[C@H]1Cc2c[nH]c3c(Cl)ccc(c23)[C@]12C=C(C)C(=O)O2", "inactive; negative"]
]}

Exercise: Tell me its mutagenic call given O=C1OC(c2ccc(O)cc2)(c2ccc(O)cc2)c2ccccc21 as the entry.
Key: inactive; negative
